System Under Test: telomerase (Homo sapiens)
Construct: placing cells, tissues, or preferably a cellular extract or other preparation containing telomerase in contact with; endogenous in cells
Procedure Text: Inhibition of telomerase activity (IC50)
Assay type: biochemical
Condition Parameters: Table 3; only approximate values
Recorded Endpoint: IC50 (µM)
Unit µM implied. Number only.

- Cc1cccnc1N=Cc1ccc(C#N)c(SCc2ccc(C=Cc3ccccc3)cc2)n1 [Compound XX]: 8

The record that follows has no IC50 shown yet.
Input: Recall and state the measured IC50 for N#Cc1ccc(C=Nc2ccc(F)c(F)c2)nc1SCc1ccc(Cl)c(Cl)c1 [VI] .
Output: 10

====

System Under Test: telomerase (Homo sapiens, UniProt O14746)
Construct: placing cells, tissues, or preferably a cellular extract or other preparation containing telomerase in contact with; endogenous in cells
Sequence (O14746 whole entry): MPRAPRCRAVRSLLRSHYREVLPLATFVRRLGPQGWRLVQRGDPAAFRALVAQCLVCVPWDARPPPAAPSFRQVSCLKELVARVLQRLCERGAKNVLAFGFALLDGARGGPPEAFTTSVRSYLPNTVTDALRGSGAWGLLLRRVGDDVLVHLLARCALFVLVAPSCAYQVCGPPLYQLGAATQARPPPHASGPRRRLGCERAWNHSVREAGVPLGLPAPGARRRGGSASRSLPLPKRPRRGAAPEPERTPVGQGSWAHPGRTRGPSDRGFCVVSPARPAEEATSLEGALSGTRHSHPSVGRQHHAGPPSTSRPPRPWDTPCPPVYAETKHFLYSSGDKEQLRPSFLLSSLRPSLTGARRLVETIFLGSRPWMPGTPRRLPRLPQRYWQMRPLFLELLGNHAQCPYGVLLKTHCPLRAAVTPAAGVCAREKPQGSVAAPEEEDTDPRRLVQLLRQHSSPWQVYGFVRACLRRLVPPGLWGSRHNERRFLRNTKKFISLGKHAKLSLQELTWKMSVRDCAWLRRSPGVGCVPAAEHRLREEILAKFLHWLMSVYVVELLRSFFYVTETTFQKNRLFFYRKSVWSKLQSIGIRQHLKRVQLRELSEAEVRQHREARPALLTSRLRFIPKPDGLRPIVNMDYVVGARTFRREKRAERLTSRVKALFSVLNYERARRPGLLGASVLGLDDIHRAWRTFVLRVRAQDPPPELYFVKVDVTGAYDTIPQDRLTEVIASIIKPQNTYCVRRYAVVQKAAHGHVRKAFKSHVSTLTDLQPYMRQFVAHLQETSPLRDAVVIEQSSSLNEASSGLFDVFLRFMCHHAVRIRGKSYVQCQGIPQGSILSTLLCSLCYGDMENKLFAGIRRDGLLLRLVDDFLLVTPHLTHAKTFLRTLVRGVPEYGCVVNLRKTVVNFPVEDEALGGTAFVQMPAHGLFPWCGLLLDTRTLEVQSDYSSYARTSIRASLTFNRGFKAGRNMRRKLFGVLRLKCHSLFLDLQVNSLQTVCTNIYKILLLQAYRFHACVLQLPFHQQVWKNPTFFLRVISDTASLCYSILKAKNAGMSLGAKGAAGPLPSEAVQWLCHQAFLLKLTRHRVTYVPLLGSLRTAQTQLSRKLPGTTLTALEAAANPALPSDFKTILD
Sequence (O60832 whole entry partner): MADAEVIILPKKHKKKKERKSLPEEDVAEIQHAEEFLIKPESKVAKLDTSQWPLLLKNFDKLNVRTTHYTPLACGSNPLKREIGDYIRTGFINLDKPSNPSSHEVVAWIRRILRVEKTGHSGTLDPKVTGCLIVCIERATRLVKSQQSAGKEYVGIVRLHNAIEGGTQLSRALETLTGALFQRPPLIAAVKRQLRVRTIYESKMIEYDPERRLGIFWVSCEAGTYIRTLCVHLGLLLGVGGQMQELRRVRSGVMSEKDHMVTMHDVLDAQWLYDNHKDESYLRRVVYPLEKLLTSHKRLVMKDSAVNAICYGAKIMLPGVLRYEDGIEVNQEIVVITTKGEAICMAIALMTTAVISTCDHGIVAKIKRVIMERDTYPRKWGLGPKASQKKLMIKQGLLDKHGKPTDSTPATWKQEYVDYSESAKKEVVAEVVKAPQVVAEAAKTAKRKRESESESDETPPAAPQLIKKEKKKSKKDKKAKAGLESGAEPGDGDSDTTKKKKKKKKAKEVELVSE
Sequence (Q9NPE3 whole entry partner): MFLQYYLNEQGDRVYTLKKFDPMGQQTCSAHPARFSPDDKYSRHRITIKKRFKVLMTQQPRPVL
Sequence (Q9NX24 whole entry partner): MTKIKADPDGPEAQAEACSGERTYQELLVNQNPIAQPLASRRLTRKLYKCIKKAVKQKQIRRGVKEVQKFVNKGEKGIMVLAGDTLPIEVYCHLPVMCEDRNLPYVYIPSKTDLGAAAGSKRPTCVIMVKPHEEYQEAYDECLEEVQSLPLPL
Sequence (Q9NY12 whole entry partner): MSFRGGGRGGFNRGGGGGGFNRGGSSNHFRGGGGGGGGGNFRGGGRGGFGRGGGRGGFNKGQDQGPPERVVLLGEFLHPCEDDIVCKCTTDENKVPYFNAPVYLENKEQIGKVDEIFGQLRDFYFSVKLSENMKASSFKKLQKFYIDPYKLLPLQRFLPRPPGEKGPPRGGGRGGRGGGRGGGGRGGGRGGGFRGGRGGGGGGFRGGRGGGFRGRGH
Procedure Text: Inhibition of telomerase activity (IC50)
Assay type: biochemical
Condition Parameters: Table 3; only approximate values
# reported pIC50; entries follow
Expect pIC50 as a plain number equal to -log10 of the molar concentration.

* Cc1cccnc1N=Cc1ccc(C#N)c(SCc2ccccc2C(F)(F)F)n1 | 5.52

Input: Recall and state the measured pIC50 for `Cc1cccnc1N=Cc1ccc(C#N)c(SCc2ccc(-c3ccccc3)cc2)n1` .
Output: 5.70

====

# reported pIC50; entries follow
System Under Test: telomerase (Homo sapiens, UniProt O14746)
Construct: placing cells, tissues, or preferably a cellular extract or other preparation containing telomerase in contact with; endogenous in cells
Procedure Text: Inhibition of telomerase activity (IC50)
Format: biochemical
Condition Parameters: Table 3; only approximate values
Expect pIC50 as a plain number equal to -log10 of the molar concentration.

For orientation, consider the following solved cases.
* Cc1cc(C)cc(CSc2nc(C=Nc3ncccc3C)ccc2C#N)c1 [Compound XXIX] | 5.70
* Cc1ccccc1CSc1nc(C=Nc2ncccc2C)ccc1C#N [Compound XXIV] | 5.52

Input: Recall and state the measured pIC50 for N#Cc1ccc(C=Nc2ccc(Cl)cc2)nc1SCc1ccc(Cl)c(Cl)c1 [III] .
Output: 5.19

Input: Recall and state the measured pIC50 for Cc1ccc(C)c(CSc2nc(C=Nc3ncccc3C)ccc2C#N)c1 [Compound XXVI] .
Output: 6.05

====

System Under Test: telomerase (Homo sapiens, UniProt O14746)
Construct: placing cells, tissues, or preferably a cellular extract or other preparation containing telomerase in contact with; endogenous in cells
Procedure Text: Inhibition of telomerase activity (IC50)
Assay type: biochemical
Condition Parameters: Table 3; only approximate values
pIC50: −log10 of the molar value.
Recorded Endpoint: pIC50

• Cc1ccc(CSc2nc(C=Nc3ncccc3C)ccc2C#N)c(C)c1 [Compound XXXI] = > 5.49
• Cc1cccnc1N=Cc1ccc(C#N)c(SCc2csc3ccc(Cl)cc23)n1 [Compound XLVII] = > 5.49

The record that follows has no pIC50 shown yet.
Input: Recall and state the measured pIC50 for Cc1cccnc1N=Cc1ccc(C#N)c(SCC#CCSc2nc(C=Nc3ncccc3C)ccc2C#N)n1 [LXI] .
Output: > 5.49

====

System Under Test: telomerase (Homo sapiens)
Construct: placing cells, tissues, or preferably a cellular extract or other preparation containing telomerase in contact with; endogenous in cells
Procedure Text: Inhibition of telomerase activity (IC50)
Format: biochemical
Condition Parameters: Table 3; only approximate values
Recorded Endpoint: IC50

• N#Cc1ccc(C=Nc2ccc(Br)cn2)nc1SCc1ccc(Cl)s1 [Compound LII] = < 3.2 µM
• Cc1cccnc1N=Cc1ccc(C#N)c(SCc2ccc3c(c2)C(C)(C)CCC3(C)C)n1 [Compound XLIII] = < 3.2 µM

The record that follows has no IC50 shown yet.
Input: With telomerase (Homo sapiens) as the test system, provide measured IC50 for this compound: Cc1cccnc1N=Cc1ccc(C#N)c(SCc2cc(Cl)cc(Cl)c2)n1 [Compound XXXII]
Output: < 3.2 µM
